The measurements presented in this section are drawn from ChEMBL document CHEMBL1134824.

assay.method.text: Compound was evaluated for the selective and competitive inhibition of Alpha-glucosidase from Yeast
Parameters: species or system Saccharomyces cerevisiae
readout: Ki (µM)
Answer in µM, number only, no unit symbol.

Reported Ki for Br.N=C(Cc1ccccc1)NC1OC(CO)C(O)C(O)C1O (stereo in doubt; 1a) : what is it?
21

---

assay.method.text: Compound was evaluated for the selective and competitive inhibition of Beta-glucosidase from Almond
Set-up: species or system Prunus dulcis
readout: Ki (µM)
# unit: µM | format: bare number

Record excerpt, results attached:
[
  {
    "molecule": "Br.N=C(Cc1ccccc1)NC1OCC(O)C(O)C1O (stereo not drawn)",
    "Ki (µM)": 1100
  },
  {
    "molecule": "Br.N=C(Cc1ccccc1)NC1OC(CO)C(O)C(O)C1O (stereo in doubt; 1b)",
    "Ki (µM)": 41
  }
]

With those in mind, consider the next molecule.
GET /values?readout=Ki&item= Br.N=C(Cc1ccccc1)NC1OC(CO)C(O)C(O)C1O (stereo in doubt; 1a)
73

---

assay.method.text: Compound was evaluated for the selective and competitive inhibition of Alpha-glucosidase from Bacillus sp.
pKi: −log10 of the molar value.
readout: pKi

Requested read-out: pKi. Entry: Br.N=C(Cc1ccccc1)NC1OC(CO)C(O)C(O)C1O (stereo in doubt; 1a)
< 2.60

---

Quick list: Ki per entry.
assay.method.text: Compound was evaluated for the selective and competitive inhibition of Alpha-glucosidase from Aspergillus niger

Study these solved cases before continuing.
[
  {
    "molecule": "O=C(Cc1ccccc1)NC1OC(CO)C(O)C(O)C1O (stereo not drawn)",
    "Ki": "> 2500 µM"
  },
  {
    "molecule": "Br.N=C(Cc1ccccc1)NC1OC(CO)C(O)C(O)C1O (stereo in doubt; 1a)",
    "Ki": "> 2500 µM"
  }
]

Name the recorded Ki for Br.N=C(Cc1ccccc1)NC1OC(CO)C(O)C(O)C1O (stereo in doubt; 1b) .
47 µM

---

assay.method.text: Compound was evaluated for the selective and competitive inhibition of Beta-galactosidase from Aspergillus pulverulentus
readout: pKi
pKi is a log-scale quantity: -log10 of the concentration expressed in molar.

Item under review: Br.N=C(Cc1ccccc1)NC1OCC(O)C(O)C1O (stereo unspecified) . Reported pKi?
5.60

---

# Ki listing for each entry below
assay.method.text: Compound was evaluated for the selective and competitive inhibition of Beta-glucosidase from Aspergillus niger
Give a bare numeral; the unit µM is implied.

What value of Ki has been recorded for this entry: O=C(Cc1ccccc1)NC1OC(CO)C(O)C(O)C1O (stereo not drawn)
770

Data request, read-out Ki, for Br.N=C(Cc1ccccc1)NC1OC(CO)C(O)C(O)C1O (stereo in doubt; 1b)
390

# lookup: Ki of Br.N=C(Cc1ccccc1)NC1OC(CO)C(O)C(O)C1O (stereo in doubt; 1a)
0.094

---

assay.method.text: Compound was evaluated for the selective and competitive inhibition of Beta-galactosidase from Aspergillus oryzae
readout: Ki
Answer with the number, then the unit.

Entry Br.N=C(Cc1ccccc1)NC1OC(CO)C(O)C(O)C1O (stereo in doubt; 1b) : reported Ki = ?
2400 nM

---

The molecules listed here are annotated with their pKi.
assay.method.text: Compound was evaluated for the selective and competitive inhibition of Beta-glucosidase from Trichoderma viride
Reminder that pKi means the negative base-10 logarithm of the concentration expressed in mol/L.

[
  {
    "molecule": "O=C(Cc1ccccc1)NC1OC(CO)C(O)C(O)C1O (centres undefined)",
    "pKi": 3.11
  },
  {
    "molecule": "Br.N=C(Cc1ccccc1)NC1OC(CO)C(O)C(O)C1O (stereo in doubt; 1a)",
    "pKi": 6.89
  },
  {
    "molecule": "Br.N=C(Cc1ccccc1)NC1OC(CO)C(O)C(O)C1O (stereo in doubt; 1b)",
    "pKi": 3.41
  }
]

Now look at this one.
I would be grateful if you could share the reported pKi for Br.N=C(Cc1ccccc1)NC1OCC(O)C(O)C1O (centres undefined) .
4.89

---

measured.target: Exo-1,4-beta-xylosidase xlnD (Aspergillus niger, UniProt O00089)
Sequence (O00089 whole entry): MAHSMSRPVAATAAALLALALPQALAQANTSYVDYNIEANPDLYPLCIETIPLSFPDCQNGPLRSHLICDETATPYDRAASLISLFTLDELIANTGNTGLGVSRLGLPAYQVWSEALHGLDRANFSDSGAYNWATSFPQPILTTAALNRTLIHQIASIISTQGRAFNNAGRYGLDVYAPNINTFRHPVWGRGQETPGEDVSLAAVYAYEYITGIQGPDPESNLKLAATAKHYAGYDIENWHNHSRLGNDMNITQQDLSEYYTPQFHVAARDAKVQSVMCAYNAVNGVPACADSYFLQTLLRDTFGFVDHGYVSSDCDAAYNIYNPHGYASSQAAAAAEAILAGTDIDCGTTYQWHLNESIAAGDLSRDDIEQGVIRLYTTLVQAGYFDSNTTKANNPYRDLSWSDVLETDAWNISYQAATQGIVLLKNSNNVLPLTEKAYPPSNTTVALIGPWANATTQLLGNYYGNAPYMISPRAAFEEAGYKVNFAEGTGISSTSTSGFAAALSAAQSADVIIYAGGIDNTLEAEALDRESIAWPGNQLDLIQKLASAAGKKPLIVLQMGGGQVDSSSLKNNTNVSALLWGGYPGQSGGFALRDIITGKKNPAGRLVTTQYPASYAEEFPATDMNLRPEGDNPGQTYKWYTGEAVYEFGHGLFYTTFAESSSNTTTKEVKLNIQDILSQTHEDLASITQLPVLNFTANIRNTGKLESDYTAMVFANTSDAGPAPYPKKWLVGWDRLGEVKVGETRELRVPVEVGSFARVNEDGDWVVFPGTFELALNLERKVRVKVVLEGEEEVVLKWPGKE
assay.method.text: Compound was evaluated for the selective and competitive inhibition of Beta-xylosidase from Aspergillus pulverulentus
readout: Ki (µM)
Answer in µM, number only, no unit symbol.

Requested read-out: Ki. Entry: Br.N=C(Cc1ccccc1)NC1OC(CO)C(O)C(O)C1O (stereo in doubt; 1b)
1000

---

assay.method.text: Compound was evaluated for the basicity, pKa of the conjugate acids
Format: physicochemical
readout: pKa
Answer with a number only.

[
  {
    "compound": "NC1OC(CO)C(O)C(O)C1O (configuration not stated)",
    "experimental.value": 5.6
  }
]

Below: the item to evaluate.
Look at this compound and give its reported pKa. NC1OCC(O)C(O)C1O (configuration not stated)
5.6

---

assay.method.text: Compound was evaluated for the selective and competitive inhibition of Beta-galactosidase from Escherichia coli
readout: pKi
Scale for pKi: -log10 of concentration given in mol/L; no unit attached.

Could you tell me which pKi is on file for Br.N=C(Cc1ccccc1)NC1OC(CO)C(O)C(O)C1O (stereo in doubt; 1b) ?
5.11
